ASSAY SYSTEM: T1, CAPRIN-1 protein expressed on the membrane surface of human cancer cells (human, UniProt Q14444 2-709)
T1 sequence (looked up): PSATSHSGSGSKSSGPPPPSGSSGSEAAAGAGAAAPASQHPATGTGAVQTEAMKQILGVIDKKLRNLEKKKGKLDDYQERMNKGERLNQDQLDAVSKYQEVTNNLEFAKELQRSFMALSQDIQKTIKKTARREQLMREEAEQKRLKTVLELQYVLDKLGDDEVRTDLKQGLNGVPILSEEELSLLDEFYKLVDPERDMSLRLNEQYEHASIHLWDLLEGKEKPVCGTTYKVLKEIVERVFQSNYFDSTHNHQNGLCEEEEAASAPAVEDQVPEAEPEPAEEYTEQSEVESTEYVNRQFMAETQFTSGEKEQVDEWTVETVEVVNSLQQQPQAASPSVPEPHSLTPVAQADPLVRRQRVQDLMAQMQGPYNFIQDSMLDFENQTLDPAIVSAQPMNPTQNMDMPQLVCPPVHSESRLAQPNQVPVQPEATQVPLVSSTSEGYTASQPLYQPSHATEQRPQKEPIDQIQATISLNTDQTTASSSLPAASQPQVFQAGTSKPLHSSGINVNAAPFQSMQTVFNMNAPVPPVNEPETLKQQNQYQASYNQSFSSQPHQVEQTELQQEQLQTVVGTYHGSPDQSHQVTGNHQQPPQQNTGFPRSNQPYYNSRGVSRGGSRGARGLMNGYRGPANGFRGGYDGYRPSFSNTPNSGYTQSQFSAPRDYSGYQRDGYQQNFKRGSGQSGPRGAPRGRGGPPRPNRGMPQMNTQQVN
ASSAY SUMMARY: cell-based or functional assay
RESULT TYPE: ADCC cytotoxic activity (51Cr release) on SKOV3

Recall and state the measured ADCC cytotoxic activity (51Cr release) on SKOV3 for humanized antibody #2 (antibody, V domains shown) VH: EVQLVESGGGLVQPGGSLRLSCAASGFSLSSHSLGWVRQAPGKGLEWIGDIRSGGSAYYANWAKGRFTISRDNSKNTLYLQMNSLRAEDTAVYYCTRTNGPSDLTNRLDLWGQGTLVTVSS VL: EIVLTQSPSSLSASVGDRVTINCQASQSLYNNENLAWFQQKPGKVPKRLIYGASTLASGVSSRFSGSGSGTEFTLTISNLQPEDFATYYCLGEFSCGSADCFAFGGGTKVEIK .
≥ 31%

Cited source: patent US20160297889A1
